- SYSTEM: phospho p-38 alpha kinase (Homo sapiens, UniProt Q16539)
- Construct: purchased Panvera
- Sequence (Q16539 whole entry): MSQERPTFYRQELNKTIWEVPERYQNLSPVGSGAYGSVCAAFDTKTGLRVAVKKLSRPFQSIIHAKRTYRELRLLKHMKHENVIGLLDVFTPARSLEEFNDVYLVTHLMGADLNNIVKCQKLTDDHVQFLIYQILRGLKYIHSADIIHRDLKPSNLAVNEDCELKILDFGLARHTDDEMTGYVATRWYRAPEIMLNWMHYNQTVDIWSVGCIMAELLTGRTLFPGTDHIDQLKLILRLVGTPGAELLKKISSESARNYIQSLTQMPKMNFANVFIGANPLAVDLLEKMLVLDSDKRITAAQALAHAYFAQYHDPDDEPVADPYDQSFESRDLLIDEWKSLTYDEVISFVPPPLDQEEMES
- ASSAY_EXPLANATION: P-38 alpha kinase assay (spectrophotometric, pyruvate kinase/lactate dehydrogenase coupled)
- Assay type: biochemical
- EXPERIMENTAL_CONDITIONS: Table 5; @ 0.1 uM
Define the label as yes (1) when % @ concentration, uM is strictly less than 20% and as no (0) in all remaining cases.

Decide: % @ concentration, uM of CC(C)(C)c1cc(NC(=O)Nc2cccc(Cl)c2Cl)n(-c2cccc(Cn3c(=O)[nH]n(-c4ccccc4)c3=O)c2)n1 [Example 396] strictly below 20%?
yes (1)

Problem: For the compound CN1CCN(C(=O)NCc2cccc(-n3nc(C(C)(C)C)cc3NC(=O)Nc3ccc(Cl)cc3)c2)CC1 [Example 390] , is % @ concentration, uM under 20%?
no (0)

Problem: For the compound O=C(O)Cc1cccc(-n2nc(-c3ccsc3)cc2NC(=O)Nc2cccc(Cl)c2Cl)c1 [Example 436] , is % @ concentration, uM under 20%?
yes (1)

Is 20% strictly greater than the compound's reported % @ concentration, uM? compound: CC(C)(C)c1cc(NC(=O)Nc2cccc3ccccc23)n(-c2ccc(O)cc2)n1 [Example 415]
no (0)

Determine if CC(C)(C)c1cc(NC(=O)Nc2ccc(F)cc2F)n(-c2cccc(C#N)c2)n1 [Example 499] shows % @ concentration, uM strictly lower than 20%.
no (0)

Does this compound meet the criterion % @ concentration, uM < 20%? CC(C)(C)c1cc(NC(=O)Nc2ccc(Cl)cc2)n(-c2cccc(Cn3c(=O)[nH]n(-c4ccccc4)c3=O)c2)n1 [Example 392]
no (0)

Field: below-cutoff. Rule: recorded % @ concentration, uM strictly less than 20%. Subject: Cc1cc(NC(=O)Nc2cccc3ccccc23)n(-c2ccc(C(O)C(F)(F)F)cc2)n1 (centres unmarked) [Example 348]
yes (1)

Quick check: does CCOC(=O)c1ccc(-n2nc(C)cc2NC(=O)Nc2cccc(Cl)c2Cl)cc1 [Example 346] have % @ concentration, uM under 20%?
yes (1)

----------
Hi there, I'd appreciate the recorded % @ concentration, uM for every entry that follows.
- SYSTEM: phospho p-38 alpha kinase (Homo sapiens, UniProt Q16539)
- Construct: purchased Panvera
- ASSAY_EXPLANATION: P-38 alpha kinase assay (spectrophotometric, pyruvate kinase/lactate dehydrogenase coupled)
- Assay type: biochemical
- EXPERIMENTAL_CONDITIONS: Table 5; @ 10 uM
Hi! Could you send only the number? It should be in %, unit omitted.

// map CC(Cc1cccc(-n2nc(C(C)(C)C)cc2NC(=O)Nc2cccc(Cl)c2Cl)c1)C(=O)O (centres unmarked) to recorded % @ concentration, uM (system: phospho p-38 alpha kinase (Homo sapiens, UniProt Q16539))
51

# returns recorded % @ concentration, uM (system: phospho p-38 alpha kinase (Homo sapiens, UniProt Q16539)) for "NC(=O)Cc1cccc(-n2nc(-c3ccccc3F)cc2NC(=O)Nc2cccc(Cl)c2Cl)c1"
192

Test system phospho p-38 alpha kinase (Homo sapiens, UniProt Q16539); read-out % @ concentration, uM; what value for "O=C(O)Cc1cccc(-n2nc(-c3cccc(F)c3)cc2NC(=O)Nc2cccc(Cl)c2Cl)c1" ?
24

Any idea what % @ concentration, uM came out for "CN(C)C(=O)NCc1cccc(-n2nc(C(C)(C)C)cc2NC(=O)Nc2cccc3ccccc23)c1" on phospho p-38 alpha kinase (Homo sapiens, UniProt Q16539)?
96

Find the measured % @ concentration, uM: item "O=C(Nc1ccc(F)c(F)c1F)Nc1cc(-c2cccs2)nn1-c1cccc(CO)c1" , target or system phospho p-38 alpha kinase (Homo sapiens, UniProt Q16539).
73

----------
- SYSTEM: phospho p-38 alpha kinase (Homo sapiens)
- Construct: purchased Panvera
- ASSAY_EXPLANATION: P-38 alpha kinase assay (spectrophotometric, pyruvate kinase/lactate dehydrogenase coupled)
- Format: biochemical
- EXPERIMENTAL_CONDITIONS: Table 5; assay not named; read-out: uM
Please go through the items and note down their IC50.
Answer format reminder: number followed by unit.

So what's the measured IC50 for this one? "O=C(Cc1cccc(-n2nc(-c3ccsc3)cc2NC(=O)Nc2cccc(Cl)c2Cl)c1)NCCO"
1 µM

Could you share which IC50 value was measured for "NC(=O)Cc1cccc(-n2nc(C3CCCC3)cc2NC(=O)Nc2ccc(-c3cccc4c3CNC4=O)cc2)c1" ?
0.032 µM

IC50 lookup needed for "O=C(Nc1cccc(Cl)c1Cl)Nc1cc(-c2cccs2)nn1-c1cccc(CC(=O)N2CC[C@H](O)C2)c1" , thanks.
0.056 µM

Fill in the blank: the reported IC50 of "CC(C)(C)c1cc(NC(=O)Nc2cccc(-c3ccc(N)nc3)c2)n(-c2cccc(CC(N)=O)c2)n1" is ____.
0.052 µM

Suppose we examine the compound "O=C(Cc1cccc(-n2nc(-c3cccs3)cc2NC(=O)Nc2cccc(Cl)c2Cl)c1)NCCO" ; what IC50 value has been reported?
1.1 µM

----------
- SYSTEM: phospho p-38 alpha kinase (Homo sapiens)
- Construct: purchased Panvera
- ASSAY_EXPLANATION: P-38 alpha kinase assay (spectrophotometric, pyruvate kinase/lactate dehydrogenase coupled)
- Type: biochemical
- EXPERIMENTAL_CONDITIONS: Table 5; @ 1 uM
MEASURE: % @ concentration, uM (%)
Use % as the unit, but write only the number.

Report % @ concentration, uM for "CN(C)C(=O)NCc1cccc(-n2nc(C(C)(C)C)cc2NC(=O)Nc2cccc3ccccc23)c1" please.
72

Need % @ concentration, uM, item "CCOC(=O)c1ccc(-n2nc(C)cc2NC(=O)Nc2cccc(Cl)c2Cl)cc1"
63

Requested field: % @ concentration, uM. Item: "CC(C)(C)c1cc(NC(=O)Nc2ccc(Cl)cc2)n(-c2cccc(CC(=O)O)c2)n1"
74

Entry "CN1CCN(C(=O)NCc2cccc(-n3nc(C(C)(C)C)cc3NC(=O)Nc3ccc(Cl)cc3)c2)CC1" has what % @ concentration, uM?
63

Name the recorded % @ concentration, uM for "O=C(O)Cc1cccc(-n2nc(-c3cccc(F)c3)cc2NC(=O)Nc2cccc(Cl)c2Cl)c1" .
9

----------
- SYSTEM: B-Raf(V599E) kinase (Homo sapiens, UniProt P15056, V600E)
- Sequence (P15056 with tags, fused parts or gaps V600E): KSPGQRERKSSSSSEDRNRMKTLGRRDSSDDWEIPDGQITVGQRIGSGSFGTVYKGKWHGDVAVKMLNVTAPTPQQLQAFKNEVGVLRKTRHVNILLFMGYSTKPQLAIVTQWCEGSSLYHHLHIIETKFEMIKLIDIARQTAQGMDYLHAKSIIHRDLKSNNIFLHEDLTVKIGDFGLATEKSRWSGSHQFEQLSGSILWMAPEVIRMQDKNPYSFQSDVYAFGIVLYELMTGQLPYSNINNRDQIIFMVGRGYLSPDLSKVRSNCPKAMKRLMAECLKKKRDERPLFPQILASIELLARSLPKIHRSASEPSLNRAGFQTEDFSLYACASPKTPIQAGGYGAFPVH
- ASSAY_EXPLANATION: B-Raf(V599E) kinase assay B1
- Type: biochemical
- EXPERIMENTAL_CONDITIONS: Method B1; construct 1
So I've got a bunch of molecules here, and I need their IC50 values.
Enter your answer as a number in µM; do not include the unit.

Looking for the measured IC50 of CC(C)(C)c1cc(NC(=O)Nc2cccc(F)c2F)n(-c2cccc(CC(N)=O)c2)n1 [Example 495] , can you help?
0.009

Which value of IC50 has been reported for O=C(O)Cc1ccc(-n2nc(C3CCCC3)cc2NC(=O)Nc2cccc(Cl)c2Cl)cc1 [Example 441] in the records?
0.037

Given the molecule NC(=O)Cc1cccc(-n2nc(C3CCCC3)cc2NC(=O)Nc2cccc(Cl)c2Cl)c1 [Example 446] , what is its reported IC50?
0.016

Can you look up the measured IC50 of CC(C)(C)c1cc(NC(=O)Nc2cc(F)c(F)cc2F)n(-c2cccc(CC(N)=O)c2)n1 [Example 494] for me?
0.007

Look at this molecule and give its reported IC50. CC(C)(C)c1cc(NC(=O)Nc2ccc(F)cc2F)n(-c2cccc(CC(N)=O)c2)n1 [Example 496]
0.01

// lookup IC50 for CC(C)(C)c1cc(NC(=O)Nc2cccc(Cl)c2Cl)n(-c2ccc(CC(=O)N3CC[C@H](O)C3)cc2)n1 [Example 478]
0.028

----------
- SYSTEM: phosphorylated p-38-alpha kinase (Homo sapiens)
- Sequence (Q16539 1-360 isoform Q16539-2): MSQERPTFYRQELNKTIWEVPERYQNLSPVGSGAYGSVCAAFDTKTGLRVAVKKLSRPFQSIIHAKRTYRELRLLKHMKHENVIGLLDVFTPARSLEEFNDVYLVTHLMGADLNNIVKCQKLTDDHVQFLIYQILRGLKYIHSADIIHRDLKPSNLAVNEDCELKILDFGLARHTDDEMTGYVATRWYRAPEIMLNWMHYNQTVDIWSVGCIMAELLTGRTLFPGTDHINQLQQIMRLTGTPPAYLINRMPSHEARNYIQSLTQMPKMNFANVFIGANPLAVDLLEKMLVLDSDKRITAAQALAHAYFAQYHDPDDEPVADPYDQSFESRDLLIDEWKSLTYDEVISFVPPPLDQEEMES
- ASSAY_EXPLANATION: P-38 alpha kinase assay P1
- Format: biochemical
- EXPERIMENTAL_CONDITIONS: Method P1; 2 h pre-incubation before ATP
For each record, write down the corresponding IC50.
Lab book: enter the figure in µM, no units written.

Recorded IC50 of NC(=O)Cc1cccc(-n2nc(-c3cccs3)cc2NC(=O)Nc2cccc(Cl)c2Cl)c1 [Example 451] , please.
0.008

Entry under review: O=C(Cc1cccc(-n2nc(-c3cccs3)cc2NC(=O)Nc2cccc(Cl)c2Cl)c1)NC(CO)CO [Example 462] . Reported IC50?
0.008

Data request, read-out IC50, for O=C(Nc1cccc(Cl)c1Cl)Nc1cc(-c2cccs2)nn1-c1cccc(CC(=O)N2CC[C@H](O)C2)c1 [Example 463]
0.025

Item under review: CC(C)(C)c1cc(NC(=O)Nc2ccc(F)cc2F)n(-c2ccc(CC(N)=O)cc2)n1 [Example 498] . Reported IC50?
0.041

// query IC50 value for entry CC(C)(C)c1cc(NC(=O)Nc2cccc(Cl)c2Cl)n(-c2ccc(CC(=O)N3CCCC(C(=O)O)C3)cc2)n1 (stereo not drawn) [Example 476]
0.006

Request the reported IC50 associated with O=C(O)Cc1cccc(-n2nc(-c3ccsc3)cc2NC(=O)Nc2cccc(Cl)c2Cl)c1 [Example 436]
0.007
